Molecular target: CCR4 (Homo sapiens)
Construct: CEM Cells Endogenous Express CCR4; endogenous in cells; host or cells: CEM cells
Test: CEM cell chemotaxis (migration) assay to CCL22 (MDC) in 100% Fetal Bovine Serum (FBS)
Assay type: cell-based
Conditions: CEM cells in 100% FBS with 1% HEPEs; recombinant human CCL22 0.1 nM; 37° C. 60 minutes
pIC50: −log10 of the molar value.
This listing pairs compounds with measured pIC50.

Worked examples, 2 compounds total:
| CHEMICAL_SMILES | TARGET_OR_SYSTEM | pIC50 |
| --- | --- | --- |
| C[C@@H](Nc1nc(N2CCN(C(=O)C3(C)CNC3)CC2)ncc1Cl)c1ccc(Cl)cc1Cl | CCR4 (Homo sapiens) | 6.00 to 7.00 |
| C[C@@H](Nc1nc(N2CCC(O[C@@H]3CCNC3)CC2)ncc1Cl)c1ccc(Cl)cc1Cl | CCR4 (Homo sapiens) | > 7.00 |

Now turn to the next compound.
Query :: I'm curious: which pIC50 was measured for `C[C@@H](Nc1nc(N2CC[C@H](NC(=O)[C@H]3CCCN3)[C@H](O)C2)ncc1F)c1ccc(Cl)cc1Cl` tested on CCR4 (Homo sapiens)?
Result :: > 7.00

###

This listing pairs molecules with measured IC50.
Target: CCR4 (Homo sapiens)
Construct: CEM Cells Endogenous Express CCR4; endogenous in cells; host or cells: CEM cells
Sequence (P51679 1-360): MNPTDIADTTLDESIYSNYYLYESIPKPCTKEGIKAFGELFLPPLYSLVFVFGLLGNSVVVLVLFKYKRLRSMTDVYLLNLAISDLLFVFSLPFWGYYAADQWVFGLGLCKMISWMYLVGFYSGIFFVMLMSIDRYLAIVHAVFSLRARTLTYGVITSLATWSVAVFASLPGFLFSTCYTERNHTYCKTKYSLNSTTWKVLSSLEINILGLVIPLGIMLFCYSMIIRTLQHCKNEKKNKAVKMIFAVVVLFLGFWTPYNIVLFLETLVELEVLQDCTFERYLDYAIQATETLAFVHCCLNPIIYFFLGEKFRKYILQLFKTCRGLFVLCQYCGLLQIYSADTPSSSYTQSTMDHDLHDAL
Experiment: CEM cell chemotaxis (migration) assay to CCL22 (MDC) in 100% Fetal Bovine Serum (FBS)
Type: cell-based
Settings: CEM cells in 100% FBS with 1% HEPEs; recombinant human CCL22 0.1 nM; 37° C. 60 minutes

Worked examples, 3 molecules total:
| MOLECULE | TARGET_OR_SYSTEM | MEASUREMENT_LABEL | RESULT |
| --- | --- | --- | --- |
| C[C@@H]1CN(c2ncc(Cl)c(N[C@H](C)c3ccc(Cl)cc3Cl)n2)CCN1C(=O)[C@H]1CCCN1 | CCR4 (Homo sapiens) | IC50 | < 100 nM |
| COc1cnc(N2CCN(C(=O)C[C@@H]3CCCN3C)CC2)nc1N[C@H](C)c1ccc(Cl)cc1Cl | CCR4 (Homo sapiens) | IC50 | < 100 nM |
| C[C@@H](Nc1nc(N2CCN(C(=O)[C@H]3CCCN3)CC2)ncc1C1CC1)c1ccc(Cl)cc1Cl | CCR4 (Homo sapiens) | IC50 | < 100 nM |

Now turn to the next molecule.
Query :: For the molecule `C[C@@H](Nc1nc(N2CCC(C(=O)N3CC[C@H](O)[C@@H](N(C)C)C3)CC2)ncc1Cl)c1ccc(Cl)cc1Cl` , what IC50 is on record?
Result :: > 1000 nM

###

This listing pairs molecules with measured IC50.
Target: CCR4 (Homo sapiens, UniProt P51679)
Construct: CEM Cells Endogenous Express CCR4; endogenous in cells; host or cells: CEM cells
Sequence (P51679 1-360): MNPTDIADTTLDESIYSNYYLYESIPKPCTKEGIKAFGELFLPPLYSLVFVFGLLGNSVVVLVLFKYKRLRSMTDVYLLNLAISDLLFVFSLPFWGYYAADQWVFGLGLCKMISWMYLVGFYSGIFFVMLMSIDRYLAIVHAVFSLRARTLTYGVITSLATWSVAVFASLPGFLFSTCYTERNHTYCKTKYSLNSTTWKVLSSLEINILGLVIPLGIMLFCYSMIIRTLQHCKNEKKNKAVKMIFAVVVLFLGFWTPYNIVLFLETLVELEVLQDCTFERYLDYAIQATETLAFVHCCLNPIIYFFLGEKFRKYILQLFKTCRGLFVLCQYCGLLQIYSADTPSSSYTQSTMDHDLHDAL
Assay: CEM cell chemotaxis (migration) assay to CCL22 (MDC) in HBSS buffer with 0.1% BSA
Format: cell-based
Settings: CEM cells in HBSS with 0.1% BSA; recombinant human CCL22 0.1 nM; 37° C. 60 minutes

Worked examples, 2 molecules total:
| MOLECULE | TARGET_OR_SYSTEM | MEASUREMENT_LABEL | RESULT |
| --- | --- | --- | --- |
| C[C@H](Nc1nc(N2CCN(C(=O)[C@@H]3CCC(=O)N3)CC2)ncc1Cl)c1ccc(Cl)cc1Cl [Example 1.253] | CCR4 (Homo sapiens, UniProt P51679) | IC50 | > 1000 nM |
| C[C@@H](Nc1nc(N2CCN(C(=O)[C@H]3CCC(=O)N3)C[C@@H]2C)ncc1Cl)c1ccc(Cl)cc1Cl [Example 1.081] | CCR4 (Homo sapiens, UniProt P51679) | IC50 | < 100 nM |

Now turn to the next molecule.
Query :: For the molecule C[C@@H](Nc1nc(N2CCN(C(=O)[C@H]3CCC(=O)N3)CC2)ncc1Cl)c1c(F)cc(Cl)cc1Cl [Example 1.250] , what IC50 is on record?
Result :: < 100 nM

###

Biological target: CCR4 (Homo sapiens, UniProt P51679)
Construct: CEM Cells Endogenous Express CCR4; endogenous in cells; host or cells: CEM cells
Assay: CEM cell chemotaxis (migration) assay to CCL22 (MDC) in 100% Fetal Bovine Serum (FBS)
Format: cell-based
Details: CEM cells in 100% FBS with 1% HEPEs; recombinant human CCL22 0.1 nM; 37° C. 60 minutes
This listing pairs compounds with measured IC50.

Worked examples, 3 compounds total:
| COMPOUND | MEASUREMENT_LABEL | RESULT |
| --- | --- | --- |
| C[C@@H](Nc1nc(C2=CCN([C@H]3CCCN(CCC(=O)O)C3)CC2)ncc1Cl)c1ccc(Cl)cc1Cl | IC50 | < 100 nM |
| C[C@@H](Nc1nc(N2CCN(C(=O)[C@H]3CNCC(=O)N3)CC2)ncc1Cl)c1ccc(Cl)cc1Cl | IC50 | < 100 nM |
| COc1nc(N2CCN(C(=O)[C@H]3CCCN3)CC2)nc(N[C@H](C)c2ccc(Cl)cc2Cl)c1Cl | IC50 | < 100 nM |

Query :: For the compound `C[C@H](Nc1nc(N2CCN(C(=O)[C@H]3CCC(=O)N3)CC2)ncc1Cl)c1ccc(Cl)cc1Cl` , what IC50 is on record?
Result :: > 1000 nM

###

Target: CCR4 (Homo sapiens, UniProt P51679)
Construct: CEM Cells Endogenous Express CCR4; endogenous in cells; host or cells: CEM cells
Test: CEM cell chemotaxis (migration) assay to CCL22 (MDC) in 100% Fetal Bovine Serum (FBS)
Assay type: cell-based
Conditions: CEM cells in 100% FBS with 1% HEPEs; recombinant human CCL22 0.1 nM; 37° C. 60 minutes
MEASUREMENT_LABEL: IC50

Worked examples, 3 compounds total:
| COMPOUND | RESULT |
| --- | --- |
| C[C@@H](Nc1nc(N2CCN(C(=O)[C@H]3CCC(C)(C)N3)CC2)ncc1Cl)c1ccc(Cl)cc1Cl | < 100 nM |
| C[C@@H](Nc1nc(N2CCC(N3CC(=O)NC3=O)CC2)ncc1Cl)c1ccc(Cl)cc1Cl | > 1000 nM |
| C[C@@H](Nc1nc(N2CCC(C3CCCN(CCC(N)=O)C3)CC2)ncc1Cl)c1ccc(Cl)cc1Cl (stereo partly drawn) | < 100 nM |

Now turn to the next compound.
Query :: I'm curious: which IC50 was measured for `C[C@@H](Nc1nc(N2CC[C@H](NC(=O)CN(C)C)[C@@H](O)C2)ncc1Cl)c1ccc(Cl)cc1Cl` tested on CCR4 (Homo sapiens, UniProt P51679)?
Result :: 100 to 1000 nM

###

Target: CCR4 (Homo sapiens, UniProt P51679)
Construct: CEM Cells Endogenous Express CCR4; endogenous in cells; host or cells: CEM cells
Assay: CEM cell chemotaxis (migration) assay to CCL22 (MDC) in 100% Fetal Bovine Serum (FBS)
Assay type: cell-based
Conditions: CEM cells in 100% FBS with 1% HEPEs; recombinant human CCL22 0.1 nM; 37° C. 60 minutes
pIC50: −log10 of the molar value.
This listing pairs compounds with measured pIC50.

Worked examples, 4 compounds total:
| COMPOUND | RESULT |
| --- | --- |
| C[C@@H](Nc1nc(N2CCC(NC(=O)[C@H]3CCNC3)CC2)ncc1Cl)c1ccc(Cl)cc1Cl | > 7.00 |
| C[C@@H](Nc1nc(N2CCN(C3CCCNC3)CC2)ncc1Cl)c1ccc(Cl)cc1Cl (some centres unmarked) | > 7.00 |
| C[C@@H](Nc1nc(N2CCN(C(=O)[C@H]3CCC(=O)N3)[C@@H](CO)C2)ncc1Cl)c1ccc(Cl)cc1Cl | > 7.00 |
| C[C@@H](Nc1nc(N2CCN(C(=O)[C@H]3CCCN3)CC2)ncc1F)c1ccc(Cl)cc1Cl | > 7.00 |

Now turn to the next compound.
Query :: For the compound `C[C@@H](Nc1cc(C(F)(F)F)nc(N2CCN(C(=O)[C@H]3CCC(=O)N3)CC2)n1)c1ccc(Cl)cc1Cl` , what pIC50 is on record?
Result :: 6.00 to 7.00
